Target: 5-hydroxytryptamine receptor 2A (Homo sapiens, UniProt P28223); further: assay procedure not described here
Sequence (P28223 whole entry): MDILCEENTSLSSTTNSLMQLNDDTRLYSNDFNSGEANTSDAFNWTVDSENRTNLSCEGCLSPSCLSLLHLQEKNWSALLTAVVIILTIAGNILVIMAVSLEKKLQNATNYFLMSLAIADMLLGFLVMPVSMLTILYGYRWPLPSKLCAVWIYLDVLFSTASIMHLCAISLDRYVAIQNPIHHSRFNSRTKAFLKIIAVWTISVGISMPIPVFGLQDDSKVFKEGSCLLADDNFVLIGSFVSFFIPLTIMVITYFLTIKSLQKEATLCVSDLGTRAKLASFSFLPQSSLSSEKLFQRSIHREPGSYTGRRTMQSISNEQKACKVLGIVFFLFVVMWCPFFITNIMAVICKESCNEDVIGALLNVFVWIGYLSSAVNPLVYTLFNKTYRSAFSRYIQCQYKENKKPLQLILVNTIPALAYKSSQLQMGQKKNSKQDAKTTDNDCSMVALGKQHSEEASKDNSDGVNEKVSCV
TEST_READOUT: AC50

Would you please look over these solved cases?
CN1C(=O)C(O)N=C(c2ccccc2)c2cc(Cl)ccc21 (stereo not drawn) ... > 10 µM
O=[N+]([O-])c1cn2c(n1)OC[C@@H](OCc1ccc(OC(F)(F)F)cc1)C2 ... > 10 µM

With those in mind, consider the next compound.
Which measured AC50 belongs to CC(C)(C)c1cc(C(C)(C)C)c(NC(=O)c2c[nH]c3ccccc3c2=O)cc1O , tested on 5-hydroxytryptamine receptor 2A (Homo sapiens, UniProt P28223)?; further: assay procedure not described here
> 10 µM

====

Molecular target: cGMP-inhibited 3',5'-cyclic phosphodiesterase 3A (Homo sapiens, UniProt Q14432); further: assay procedure not described here
Sequence (Q14432 whole entry): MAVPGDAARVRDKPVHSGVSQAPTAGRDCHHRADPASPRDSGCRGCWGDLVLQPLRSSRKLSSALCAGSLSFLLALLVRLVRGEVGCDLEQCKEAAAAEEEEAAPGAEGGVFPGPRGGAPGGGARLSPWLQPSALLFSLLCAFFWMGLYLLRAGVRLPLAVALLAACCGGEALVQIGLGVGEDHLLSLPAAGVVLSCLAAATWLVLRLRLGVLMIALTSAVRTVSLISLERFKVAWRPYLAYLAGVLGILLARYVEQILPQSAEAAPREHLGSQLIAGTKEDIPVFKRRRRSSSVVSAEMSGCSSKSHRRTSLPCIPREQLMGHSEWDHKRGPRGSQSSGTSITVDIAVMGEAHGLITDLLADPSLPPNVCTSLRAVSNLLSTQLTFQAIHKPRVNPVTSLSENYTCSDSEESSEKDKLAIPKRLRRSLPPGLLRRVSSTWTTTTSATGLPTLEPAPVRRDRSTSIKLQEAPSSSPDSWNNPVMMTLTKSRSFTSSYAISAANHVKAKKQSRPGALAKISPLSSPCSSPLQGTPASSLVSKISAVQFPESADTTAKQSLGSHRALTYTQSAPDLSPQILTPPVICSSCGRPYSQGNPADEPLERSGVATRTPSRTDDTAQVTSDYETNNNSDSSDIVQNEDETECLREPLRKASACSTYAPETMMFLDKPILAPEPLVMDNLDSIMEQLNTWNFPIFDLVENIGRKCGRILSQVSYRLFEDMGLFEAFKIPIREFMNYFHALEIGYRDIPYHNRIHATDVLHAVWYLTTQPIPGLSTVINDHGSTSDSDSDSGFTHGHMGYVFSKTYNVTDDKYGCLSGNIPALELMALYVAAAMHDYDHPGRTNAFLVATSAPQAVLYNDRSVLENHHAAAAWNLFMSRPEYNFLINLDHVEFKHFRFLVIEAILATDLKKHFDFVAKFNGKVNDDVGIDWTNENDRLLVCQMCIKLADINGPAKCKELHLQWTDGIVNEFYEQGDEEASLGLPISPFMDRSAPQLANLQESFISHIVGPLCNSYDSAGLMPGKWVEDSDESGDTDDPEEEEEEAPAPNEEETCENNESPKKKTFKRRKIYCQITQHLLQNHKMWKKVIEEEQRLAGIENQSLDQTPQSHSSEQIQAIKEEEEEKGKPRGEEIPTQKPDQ
Format: functional
Items are presented alongside their recorded AC50.

Would you please look over these solved cases?
COc1cc2nc(N(C)CCCNC(=O)C3CCCO3)nc(N)c2cc1OC (stereo not drawn) ... > 30 µM
CC[C@H]1CN2CCc3cc(OC)c(OC)cc3[C@@H]2C[C@@H]1C[C@H]1NCCc2cc(OC)c(OC)cc21 ... > 30 µM
CNC1Cc2ccccc2N(C)c2ccccc21 (stereo not drawn) ... > 30 µM
CN1CCN(CC/C=C2/c3ccccc3Sc3ccc(S(=O)(=O)N(C)C)cc32)CC1 ... 11 µM
Cc1cc(C)c(NC(=O)CN(CC(=O)O)CC(=O)O)c(C)c1Br ... > 30 µM

Consider the compound NS(=O)(=O)Cc1noc2ccccc12 [ZONISAMIDE] and give its measured AC50.
> 30 µM

Consider the compound Cc1c(OCC(F)(F)F)ccnc1C[S+]([O-])c1nc2ccccc2[nH]1 (stereo not drawn) and give its measured AC50.
> 10 µM

Consider the compound CC(=O)O[C@H]1C[C@@H]2CC[C@@H]3[C@H](CC[C@@]4(C)[C@H]3C[C@H]([N+]3(C)CCCCC3)[C@@H]4OC(C)=O)[C@@]2(C)C[C@@H]1N1CCCCC1 and give its measured AC50.
> 30 µM

====

Molecular target: Amine oxidase [flavin-containing] A (Homo sapiens); further: assay procedure not described here
Sequence (P21397 whole entry): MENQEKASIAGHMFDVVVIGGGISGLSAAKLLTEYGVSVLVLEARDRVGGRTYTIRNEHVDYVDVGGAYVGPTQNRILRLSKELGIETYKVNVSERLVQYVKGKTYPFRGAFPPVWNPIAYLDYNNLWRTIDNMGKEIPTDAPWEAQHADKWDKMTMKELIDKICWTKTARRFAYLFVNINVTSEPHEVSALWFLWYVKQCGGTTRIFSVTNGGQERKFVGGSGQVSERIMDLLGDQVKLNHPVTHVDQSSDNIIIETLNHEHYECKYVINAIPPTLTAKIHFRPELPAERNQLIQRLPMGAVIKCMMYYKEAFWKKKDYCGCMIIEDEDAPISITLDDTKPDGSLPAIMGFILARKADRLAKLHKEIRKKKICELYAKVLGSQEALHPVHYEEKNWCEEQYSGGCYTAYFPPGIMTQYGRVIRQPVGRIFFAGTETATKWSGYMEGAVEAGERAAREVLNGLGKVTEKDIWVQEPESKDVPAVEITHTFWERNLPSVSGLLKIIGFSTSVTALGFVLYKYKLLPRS
Format: functional
TEST_READOUT: AC50

Would you please look over these solved cases?
Nc1nc(NC2CC2)c2ncn([C@H]3C=C[C@@H](CO)C3)c2n1 ... > 30 µM
CNS(=O)(=O)Cc1ccc2[nH]cc(CCN(C)C)c2c1 ... > 30 µM
CC(C)=CCC/C(C)=C/C=C/C(C)=C/C=C/C(C)=C/C=C/C=C(C)/C=C/C=C(C)/C=C/C=C(\C)CCC=C(C)C ... > 30 µM
CN1C(=O)C(O)N=C(c2ccccc2)c2cc(Cl)ccc21 (stereo not drawn) ... > 10 µM
CCCCCNC(=N)N/N=C/c1c[nH]c2ccc(OC)cc12 ... > 30 µM
COc1ccc2c3c1O[C@H]1[C@@H](O)C=C[C@H]4[C@@H](C2)N(C)CC[C@@]341 ... > 10 µM

With those in mind, consider the next compound.
Consider the compound CC[C@@H](C(N)=O)N1CCCC1=O and give its measured AC50.
> 30 µM

====

Observed AC50 values for UniProtKB P21731 are listed in what follows.
Sequence (P21731 whole entry): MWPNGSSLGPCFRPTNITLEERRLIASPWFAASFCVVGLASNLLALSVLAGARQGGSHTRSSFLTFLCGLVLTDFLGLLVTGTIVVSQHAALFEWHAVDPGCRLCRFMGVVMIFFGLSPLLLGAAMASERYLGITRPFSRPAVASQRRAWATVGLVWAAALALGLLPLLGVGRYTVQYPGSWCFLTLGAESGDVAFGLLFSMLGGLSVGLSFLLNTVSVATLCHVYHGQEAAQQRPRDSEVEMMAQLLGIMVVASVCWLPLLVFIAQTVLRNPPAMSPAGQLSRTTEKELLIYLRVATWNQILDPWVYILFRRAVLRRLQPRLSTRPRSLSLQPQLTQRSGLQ

Would you please look over these solved cases?
NC(=O)CN1CC(O)CC1=O (stereo not given) [OXIRACETAM] ... > 30 µM
CC(C)(C)NCC(O)COc1cccc2c1CCC(=O)N2 (stereo not given) [CARTEOLOL] ... > 10 µM
CCCN1C[C@H](CSC)C[C@@H]2c3cccc4[nH]cc(c34)C[C@H]21 [PERGOLIDE] ... > 30 µM
C#C[C@]1(O)CC[C@H]2[C@@H]3[C@H](C)CC4=C(CCC(=O)C4)[C@H]3CC[C@@]21C [TIBOLONE] ... > 30 µM
O=C(O)CCCCCCNC1c2ccccc2CCc2ccccc21 [AMINEPTINE] ... > 30 µM

Which measured AC50 belongs to O=C(O)[C@H](CC(=O)N1C[C@H]2CCCC[C@H]2C1)Cc1ccccc1 [MITIGLINIDE] , tested on UniProtKB P21731?
> 10 µM

Which measured AC50 belongs to COc1ccccc1OCCNCC(O)c1ccc(C)c(S(N)(=O)=O)c1 (stereo not given) [AMOSULALOL] , tested on UniProtKB P21731?
> 30 µM

Which measured AC50 belongs to CC1(C)O[C@@H]2C[C@H]3[C@@H]4CCC5=CC(=O)C=C[C@]5(C)[C@H]4[C@@H](O)C[C@]3(C)[C@]2(C(=O)CO)O1 [DESONIDE] , tested on UniProtKB P21731?
> 10 µM

Which measured AC50 belongs to CC[C@@H]1C(=O)OC[C@@H]1Cc1cncn1C [PILOCARPINE] , tested on UniProtKB P21731?
> 30 µM

Which measured AC50 belongs to CCCSc1ccc2nc(NC(=O)OC)[nH]c2c1 [ALBENDAZOLE] , tested on UniProtKB P21731?
> 30 µM
